# credit: patent US10131652B2

Plant response rating, Barnyardgrass for assorted compounds
- Tested on: barnyardgrass (Echinochloa crus-galli)
- Test method notes: Test B pre-/postemergence plant response
- Format: in vivo
- Protocol conditions: Postemergence, 31 g ai/ha; 0 to 100 scale (0 no effect, 100 complete control)

{"Mol smiles": "FC(F)(F)COc1cc(-c2ccccc2Oc2ncc(Cl)cn2)ncn1", "Measurement target": "barnyardgrass (Echinochloa crus-galli)", "Plant response rating, Barnyardgrass": 10}
{"Mol smiles": "CC(=O)c1cc(-c2ccccc2Oc2ncc(Br)cn2)no1", "Measurement target": "barnyardgrass (Echinochloa crus-galli)", "Plant response rating, Barnyardgrass": 0}
{"Mol smiles": "FC(F)(F)COc1cc(-c2ccccc2Oc2ncc(Cl)cn2)on1", "Measurement target": "barnyardgrass (Echinochloa crus-galli)", "Plant response rating, Barnyardgrass": 10}
{"Mol smiles": "FC(F)c1cc(-c2ccccc2Oc2ncc(Br)cn2)on1", "Measurement target": "barnyardgrass (Echinochloa crus-galli)", "Plant response rating, Barnyardgrass": 0}

Q. Which Plant response rating, Barnyardgrass is reported for this compound? Cn1nc(-c2ccccc2Oc2ncc(Cl)cn2)cc1C(F)(F)F
A. 0
